Values were extracted from patent US8119624B2.

Biological target: Full-length glucokinase (beta cell isoform) (Homo sapiens, UniProt P35557)
Construct: Full-length glucokinase (beta cell isoform) was His-tagged at N-terminus; His tag (N); made in house
Sequence (P35557 1-465): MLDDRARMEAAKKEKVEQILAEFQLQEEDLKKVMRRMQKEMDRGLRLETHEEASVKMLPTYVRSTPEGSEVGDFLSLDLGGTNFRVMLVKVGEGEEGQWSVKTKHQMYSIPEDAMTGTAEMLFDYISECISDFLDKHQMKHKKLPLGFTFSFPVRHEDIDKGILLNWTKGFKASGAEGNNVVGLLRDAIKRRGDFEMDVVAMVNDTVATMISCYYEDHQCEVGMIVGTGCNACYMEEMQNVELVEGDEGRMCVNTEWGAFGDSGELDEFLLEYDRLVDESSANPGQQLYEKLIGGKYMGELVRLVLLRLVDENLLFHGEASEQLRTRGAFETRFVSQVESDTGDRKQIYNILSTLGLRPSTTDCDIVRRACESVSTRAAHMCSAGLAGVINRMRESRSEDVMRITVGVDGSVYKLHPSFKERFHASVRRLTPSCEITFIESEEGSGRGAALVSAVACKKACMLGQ
Assay: Glucokinase biochemical assay (PK/LDH-coupled, NADH depletion at 340 nm): % activation, EC50, % max activation
Settings: 10 uM compound; 5 mM glucose; % Activation=(Va/Vo−1)×100; read-out: % Activation at 10 uM
The compounds listed here are annotated with their activation at 10 µM.
quantity_kind: activation at 10 µM (%)

| compound | quantity_kind | units_label | measurement |
| --- | --- | --- | --- |
| Cc1cc2c(Oc3ccc(C(=O)N(C)C)nc3)cc(C(=O)Nc3cnn(C)n3)cc2o1 [Example 278] | activation at 10 µM | % | 131 |
| Cc1cc2c(Oc3ccc(S(=O)(=O)N(C)C)c(F)c3)cc(C(=O)Nc3cnc(N(C)C)cn3)cc2o1 [Example 308] | activation at 10 µM | % | 141 |
| CC(C)Oc1cc(C(=O)Nc2ccn(C)n2)cc2c1CC(CNC1CC1)O2 (centres unmarked) [Example 219] | activation at 10 µM | % | 8 |
| Cn1ccc(NC(=O)c2cc(Oc3ccc(C(=O)N4CC(F)(F)C4)cc3F)c3c(c2)OC(C)(C)C3)n1 [Example 43] | activation at 10 µM | % | 164 |
| COCC1(C)Cc2c(Oc3ccc(S(C)(=O)=O)c(F)c3)cc(C(=O)Nc3ccn(C)n3)cc2O1 (centres unmarked) [Example 237] | activation at 10 µM | % | 189 |
| Cn1ncc(NC(=O)c2cc(Oc3ccc(C(=O)N4CCC4)cc3)c3c(c2)OC(C)(C)C3)n1 [Example 160] | activation at 10 µM | % | 298 |
| Cc1ccc(C(=O)COc2cc(C(=O)Nc3ccn(C)n3)cc3c2CC(C)(C)O3)cn1 [Example 103] | activation at 10 µM | % | 78.9 |
| CCc1nnc(NC(=O)c2cc(Oc3ccc(S(C)(=O)=O)cc3)c3c(c2)OC(C)(C)C3)s1 [Example 27] | activation at 10 µM | % | 112 |
| Cn1ccc(NC(=O)c2cc(Oc3ccc(C(F)F)cc3)c3c(c2)OC(C)(C)C3)n1 [Example 38] | activation at 10 µM | % | 109 |
| Cn1ccc(NC(=O)c2cc(Oc3cccc(C(=O)N4CCC4)c3)c3c(c2)OC(C)(C)C3)n1 [Example 37] | activation at 10 µM | % | 107 |
| Cn1ccc(NC(=O)c2cc(Oc3cnc(C(=O)N4CCC4)c(F)c3)c3c(c2)OC(C)(C)C3)n1 [Example 173] | activation at 10 µM | % | 159 |
| CN(C)C(=O)c1ccc(Oc2cc(C(=O)Nc3ccccn3)cc3c2CC(C)(C)O3)cc1 [Example 157] | activation at 10 µM | % | 69.2 |
| Cc1ccc(NC(=O)c2cc(Oc3ccc(C(=O)N(C)C)cc3)c3c(c2)OC(C)(C)C3)nc1 [Example 150] | activation at 10 µM | % | 39.1 |
| Cn1ccc(NC(=O)c2cc(Oc3ccc(S(C)(=O)=O)cc3)c3cc(C(=O)N4CCC4)oc3c2)n1 [Example 291] | activation at 10 µM | % | 12.7 |
| Cn1ccc(NC(=O)c2cc(OCc3noc(C(C)(C)C)n3)c3c(c2)OC(C)(C)C3)n1 [Example 91] | activation at 10 µM | % | 150 |
| Cc1cc2cc(C(=O)Nc3ccn(C)n3)cc(Oc3ccc(S(C)(=O)=O)cc3)c2o1 [Example 338] | activation at 10 µM | % | 84.5 |
| Cn1ncc(NC(=O)c2cc(Oc3ccc(S(=O)(=O)C4CC4)c(F)c3)c3c(c2)OC(C)(C)C3)n1 [Example 140] | activation at 10 µM | % | 196 |
| Cc1cc2c(Oc3ccc(S(C)(=O)=O)cc3)cc(C(=O)Nc3ccc(C#N)cn3)cc2o1 [Example 261] | activation at 10 µM | % | 58.8 |
| Cn1ccc(NC(=O)c2cc(Oc3ccc(C(=O)N4CC[C@@H](F)C4)c(F)c3)c3c(c2)OC(C)(C)C3)n1 [Example 58] | activation at 10 µM | % | 55.3 |
| CC(Oc1cc(C(=O)Nc2ccn(C)n2)cc2c1CC(C)(C)O2)c1ccccn1 (centres unmarked) [Example 81] | activation at 10 µM | % | 112 |
